Tested on: NCI-H460
Protocol text: Cytotoxicity against human NCI-H460 cells assessed as reduction in cell viability after 72 hrs by MTT assay
Format: functional, cell-based
Test parameters: NCI-H460, 72 h
Observable: pIC50
Answers are plain numbers, as −log10 of the molar value.

>>> value_observed("C#CCOC1=C/C(=N\\c2ccc(OC)cc2)c2ccccc2C1=O")
5.02
>>> value_observed("COc1ccc(/N=C2\\C=C(OCc3cn(S(=O)(=O)c4ccc(C)cc4)nn3)C(=O)c3ccccc32)cc1")
5.08
>>> value_observed("C#CCOC1=C/C(=N\\c2ccc(Cl)cc2)c2ccccc2C1=O")
4.79
>>> value_observed("Cc1ccc(/N=C2\\C=C(OCc3cn(S(=O)(=O)c4ccc(C)cc4)nn3)C(=O)c3ccccc32)cc1")
5.10
>>> value_observed("Cc1ccc(S(=O)(=O)n2cc(COC3=C/C(=N\\c4ccc(F)cc4)c4ccccc4C3=O)nn2)cc1")
5.13

Please examine the following record next.
Give pIC50 (NCI-H460) of the following compound: Cc1ccc(S(=O)(=O)n2cc(COC3=C/C(=N\c4ccc(Br)cc4)c4ccccc4C3=O)nn2)cc1
5.03

* * *

Protocol text: Selectivity index, ratio of IC50 for mouse L929 cells to IC50 for human PC3 cells after 72 hrs by MTT assay
Type: toxicity
Test parameters: L929 cells versus PC3 cells, read-out: Ratio IC50
Threshold rule: selectivity ratio at 72 h greater than or equal to 2 is yes (1); below that, no (0).

Previously resolved entries follow.
>>> label_class("C#CCOC1=C/C(=N\\c2ccc(C)cc2)c2ccccc2C1=O")
"no (0)"
>>> label_class("C#CCOC1=C/C(=N\\c2ccc(Cl)cc2)c2ccccc2C1=O")
"yes (1)"
>>> label_class("COc1ccc(SC2=CC(=O)C(=O)c3ccccc32)cc1")
"no (0)"
>>> label_class("Cc1ccc(SC2=CC(=O)C(=O)c3ccccc32)cc1")
"no (0)"
>>> label_class("C#CCOC1=C/C(=N\\c2ccc(Br)cc2)c2ccccc2C1=O")
"no (0)"
>>> label_class("C#CCOC1=C/C(=N\\c2ccc(OC)cc2)c2ccccc2C1=O")
"yes (1)"

selectivity ratio at 72 h >= 2 for C#CCOC1=C/C(=N\c2ccc(I)cc2)c2ccccc2C1=O ?
no (0)

Would you say Cc1cccc(SC2=CC(=O)C(=O)c3ccccc32)c1 shows selectivity ratio at 72 h at minimum 2?
no (0)

Has Cc1ccc(S(=O)(=O)n2cc(COC3=C/C(=N\c4ccccc4)c4ccccc4C3=O)nn2)cc1 a recorded selectivity ratio at 72 h greater than or equal to 2?
no (0)

Identify whether the reported selectivity ratio at 72 h of the following molecule is 2 or greater: Cc1ccc(S(=O)(=O)n2cc(COC3=C/C(=N\c4ccc(F)cc4)c4ccccc4C3=O)nn2)cc1
yes (1)

Identify whether the reported selectivity ratio at 72 h of the following molecule is 2 or greater: C#CCOC1=C/C(=N\c2ccccc2)c2ccccc2C1=O
yes (1)

// inclusive: selectivity ratio at 72 h at least 2? input: Cc1ccc(S(=O)(=O)n2cc(COC3=C/C(=N\c4ccc(Cl)cc4)c4ccccc4C3=O)nn2)cc1
no (0)

I'd appreciate it if you could say whether C#CCOC1=C/C(=N\c2ccc(C(C)=O)cc2)c2ccccc2C1=O has selectivity ratio at 72 h at least equal to 2.
yes (1)

Can C#CCOC1=C/C(=N\c2ccc(F)cc2)c2ccccc2C1=O be said to have selectivity ratio at 72 h at or above 2?
no (0)

Quick check: does COc1ccc(/N=C2\C=C(OCc3cn(S(=O)(=O)c4ccc(C)cc4)nn3)C(=O)c3ccccc32)cc1 have selectivity ratio at 72 h greater than or equal to 2?
no (0)

Say whether Cc1ccc(S(=O)(=O)n2cc(COC3=C/C(=N\c4ccc(I)cc4)c4ccccc4C3=O)nn2)cc1 shows selectivity ratio at 72 h of 2 or more.
no (0)

Record CC(=O)c1ccc(/N=C2\C=C(OCc3cn(S(=O)(=O)c4ccc(C)cc4)nn3)C(=O)c3ccccc32)cc1 ; criterion: selectivity ratio at 72 h no lower than 2. Met?
yes (1)

Say whether O=C1C=C(Sc2ccccc2)c2ccccc2C1=O shows selectivity ratio at 72 h of 2 or more.
no (0)

Form field: selectivity ratio at 72 h at least 2? Entry: Cc1ccc(S(=O)(=O)n2cc(COC3=C/C(=N\c4ccc(Br)cc4)c4ccccc4C3=O)nn2)cc1
yes (1)

Check if selectivity ratio at 72 h >= 2 (inclusive). Item: Cc1ccc(/N=C2\C=C(OCc3cn(S(=O)(=O)c4ccc(C)cc4)nn3)C(=O)c3ccccc32)cc1
yes (1)

* * *

Protocol text: Selectivity index, ratio of LC50 for cytotoxicity against albino Swiss mouse peritoneal macrophages to IC50 for Antitrypanosomal activity against Trypanosoma cruzi Y strain bloodstream trypomastigotes assessed as lysis of parasite in absence of mouse blood
Type: toxicity
Observable: selectivity ratio

>>> value_observed("Cc1cccc(SC2=CC(=O)C(=O)c3ccccc32)c1")
14.6
>>> value_observed("Cc1ccc(SC2=CC(=O)C(=O)c3ccccc32)cc1")
23.9
>>> value_observed("O=C(Cn1ccnc1[N+](=O)[O-])NCc1ccccc1")
"> 413"
>>> value_observed("O=C1C=C(Sc2ccccc2)c2ccccc2C1=O")
28.4

// returns reported selectivity ratio for input COc1ccc(SC2=CC(=O)C(=O)c3ccccc32)cc1
10.6

* * *

Protocol text: Selectivity index, ratio of LC50 for cytotoxicity against albino Swiss mouse peritoneal macrophages to IC50 for Antitrypanosomal activity against Trypanosoma cruzi Y strain bloodstream trypomastigotes assessed as lysis of parasite in presence of 5 % mouse blood
Assay type: toxicity
Observable: selectivity ratio

Would you please look over these solved cases?
>>> value_observed("Cc1ccc(S(=O)(=O)n2cc(COC3=C/C(=N\\c4ccccc4)c4ccccc4C3=O)nn2)cc1")
"> 6.19"
>>> value_observed("Cc1ccc(S(=O)(=O)n2cc(COC3=C/C(=N\\c4ccc(F)cc4)c4ccccc4C3=O)nn2)cc1")
"> 18.6"
>>> value_observed("Cc1cccc(SC2=CC(=O)C(=O)c3ccccc32)c1")
1.03
>>> value_observed("O=C(Cn1ccnc1[N+](=O)[O-])NCc1ccccc1")
"> 38.6"
>>> value_observed("Cc1ccc(/N=C2\\C=C(OCc3cn(S(=O)(=O)c4ccc(C)cc4)nn3)C(=O)c3ccccc32)cc1")
"> 5.65"

Dear colleague, could you send me selectivity ratio for each of the items below? Thanks.
1. Cc1ccc(SC2=CC(=O)C(=O)c3ccccc32)cc1
2. COc1ccc(SC2=CC(=O)C(=O)c3ccccc32)cc1
3. O=C1C=C(Sc2ccccc2)c2ccccc2C1=O
4. CC(=O)c1ccc(/N=C2\C=C(OCc3cn(S(=O)(=O)c4ccc(C)cc4)nn3)C(=O)c3ccccc32)cc1
5. COc1ccc(/N=C2\C=C(OCc3cn(S(=O)(=O)c4ccc(C)cc4)nn3)C(=O)c3ccccc32)cc1

1: 0.92; 2: 0.37; 3: 1.52; 4: > 12.3; 5: > 11.3

* * *

System: K562
Protocol text: Cytotoxicity against human K562 cells assessed as reduction in cell viability after 72 hrs by MTT assay
Type: functional, cell-based
Test parameters: K562, 72 h
Give measured pIC50 for each item. Keep answers brief.
Answers are plain numbers, as −log10 of the molar value.

These recorded examples may help you get a feel for the data.
>>> value_observed("Cc1ccc(S(=O)(=O)n2cc(COC3=C/C(=N\\c4ccc(Cl)cc4)c4ccccc4C3=O)nn2)cc1")
5.01
>>> value_observed("C#CCOC1=C/C(=N\\c2ccc(F)cc2)c2ccccc2C1=O")
4.87
>>> value_observed("Cc1ccc(S(=O)(=O)n2cc(COC3=C/C(=N\\c4ccc(I)cc4)c4ccccc4C3=O)nn2)cc1")
4.97
>>> value_observed("Cc1ccc(S(=O)(=O)n2cc(COC3=C/C(=N\\c4ccccc4)c4ccccc4C3=O)nn2)cc1")
4.91

Please look at the items below and tell me pIC50 for each one, in order.
1. COc1ccc(SC2=CC(=O)C(=O)c3ccccc32)cc1
2. Cc1ccc(S(=O)(=O)n2cc(COC3=C/C(=N\c4ccc(F)cc4)c4ccccc4C3=O)nn2)cc1
3. C#CCOC1=C/C(=N\c2ccc(Cl)cc2)c2ccccc2C1=O

[4.88, 5.11, 4.89]

* * *

System: NCI-H460
Protocol text: Cytotoxicity against human NCI-H460 cells assessed as reduction in cell viability after 72 hrs by MTT assay
Assay type: functional, cell-based
Test parameters: NCI-H460, 72 h
pIC50: −log10 of the molar value.
Observable: pIC50

Consider the worked cases shown below.
>>> value_observed("Cc1ccc(S(=O)(=O)n2cc(COC3=C/C(=N\\c4ccc(I)cc4)c4ccccc4C3=O)nn2)cc1")
"< 4.79"
>>> value_observed("Cc1ccc(SC2=CC(=O)C(=O)c3ccccc32)cc1")
"< 4.70"

Now look at this one.
Given the compound Cc1cccc(SC2=CC(=O)C(=O)c3ccccc32)c1 , what is its reported pIC50?
< 4.70
